I'd be grateful if you could share measured inhibition at 10 µM for these entries.
Molecular target: human B1R receptor (Homo sapiens)
Construct: host or cells: CHO K1 cells (Chinese hamster ovary), stably transfected
Assay: Functional study on the bradykinin receptor 1 (B1R), FLIPR Ca2+ assay, hB1R cells
Assay type: cell-based
Settings: CHO-K1, test substance 10 μM, agonist Lys-Des-Arg9-bradykinin 0.5 nM, % inhibition compared with the maximum achievable inhibition, read-out: B1R Antagonism, human [10 μM] % Inhibition
Dear colleague, please return just the value in %, with no unit written.

Would you mind telling me what inhibition at 10 µM value was observed for Cc1nn(C)c(Cl)c1S(=O)(=O)N1CCCCC1COCC(=O)N1CCN(C2CCN(C)CC2)CC1 (stereo not shown) ? 90.8

Record: CCN(Cc1ccncc1)C(=O)COCC1CCCCN1S(=O)(=O)c1c(Cl)cccc1Cl (stereo not shown) 97.9

Record: COc1ccc(N2CCN(C(=O)COCC3CCCCN3S(=O)(=O)c3c(Cl)cccc3Cl)CC2)cc1 (stereo not shown) 104

Record: COc1cc(C)c(S(=O)(=O)N2CCCC2COCC(=O)N2CCCC2c2ccccn2)c(C)c1 (stereo not shown) 59.1

====

I'd be grateful if you could share measured inhibition at 10 µM for these entries.
Target: human B1R receptor (Homo sapiens, UniProt P46663)
Construct: host or cells: CHO K1 cells (Chinese hamster ovary), stably transfected
Sequence (P46663 whole entry): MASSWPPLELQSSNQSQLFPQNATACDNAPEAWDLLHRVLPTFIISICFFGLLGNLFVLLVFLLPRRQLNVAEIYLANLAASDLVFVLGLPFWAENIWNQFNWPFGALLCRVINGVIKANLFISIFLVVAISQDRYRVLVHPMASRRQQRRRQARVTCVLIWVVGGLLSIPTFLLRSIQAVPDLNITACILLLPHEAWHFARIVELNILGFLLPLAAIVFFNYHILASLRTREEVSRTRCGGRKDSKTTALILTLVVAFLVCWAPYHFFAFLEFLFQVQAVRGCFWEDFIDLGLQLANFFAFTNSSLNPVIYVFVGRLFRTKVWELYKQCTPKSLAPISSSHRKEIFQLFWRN
Experiment: Functional study on the bradykinin receptor 1 (B1R), FLIPR Ca2+ assay, hB1R cells
Format: cell-based
Conditions: CHO-K1, test substance 10 μM, agonist Lys-Des-Arg9-bradykinin 0.5 nM, % inhibition compared with the maximum achievable inhibition, read-out: B1R Antagonism, human [10 μM] % Inhibition
Structures can show the parent of a compound that is named as a salt.
Dear colleague, please return just the value in %, with no unit written.

Would you mind telling me what inhibition at 10 µM value was observed for CN1CCC(N2CCN(C(=O)COCC3CCCCN3S(=O)(=O)c3cccc(Br)c3)CC2)CC1 (stereo not drawn) ? 70.5

Record: COc1ccccc1N1CCN(C(=O)COCC2CCCCN2S(=O)(=O)c2c(Cl)cccc2Cl)CC1 (stereo not drawn) 94.2

Record: Cc1cc(C)c(S(=O)(=O)N2Cc3ccccc3CC2COCC(=O)NCc2ccc(CN3CCCC3)cc2)c(C)c1 (stereo not drawn) 43.9

Record: COc1cc(C)c(S(=O)(=O)N2CCCCC2COCC(=O)NCCCN2CCN(Cc3ccccc3)CC2)c(C)c1 (stereo not drawn) 101

Record: Cc1ccc(CN2CCN(C(=O)COCC3CCCCN3S(=O)(=O)c3c(Cl)cccc3Cl)CC2)cc1 (stereo not drawn) 102

Record: COc1cc(C)c(S(=O)(=O)N2CCCCC2COCC(=O)N2CCN(Cc3ccc(Cl)cc3)CC2)c(C)c1 (stereo not drawn) 105

Record: COc1cc(C)c(S(=O)(=O)N2CCCC2COCC(=O)N2CCN(Cc3ccc(Br)cc3)CC2)c(C)c1 (stereo not drawn) 104

Record: O=C(COCC1CCCN1S(=O)(=O)c1c(Cl)cc(Cl)cc1Cl)N1CCC(CCN2CCCCC2)CC1 (stereo not drawn) 106

Record: COc1cc(C)c(S(=O)(=O)N2CCCCC2COCC(=O)N2CCCN(Cc3ccccc3)CC2)c(C)c1 (stereo not drawn) 103

Record: O=C(COCC1Cc2ccccc2CN1S(=O)(=O)c1ccc(Cl)cc1Cl)N1CCC(N2CCCCC2)CC1 (stereo not drawn) 102

Record: COc1cc(C)c(S(=O)(=O)N2CCCCC2COCC(=O)N(Cc2ccc(N(C)C)cc2)C(C)C)c(C)c1 (stereo not drawn) 20.1

Record: CN(C)c1ccc(CNC(=O)COCC2CCCN2S(=O)(=O)c2c(Cl)cc(Cl)cc2Cl)cc1 (stereo not drawn) 23.4

Record: CN1CCN(C(=O)COCC2CCCCN2S(=O)(=O)c2c(Cl)cc(Cl)cc2Cl)CC1 (stereo not drawn) 104

Record: COc1cc(C)c(S(=O)(=O)N2CCCC2COCC(=O)N2CCN(Cc3ccc(C)cc3)CC2)c(C)c1 (stereo not drawn) 103

Record: CN1CCC(N2CCN(C(=O)COCC3CCCCN3S(=O)(=O)c3ccc4c(c3)CCCC4)CC2)CC1 (stereo not drawn) [Example 179, dihydrochloride] 104
